# experiment_notes: qHTS for Inhibitors of Plasmodium falciparum (HB3) proliferation (AID 504318); also: nearly all actives have a fitted effect of over 60% in size
# test_parameters: P. falciparum HB3 in erythrocytes, SYBR Green DNA, 72 h; series mostly up to 7.21 µM
Results filed as inconclusive are left out. Calls of active or inactive are those of the source. Calls follow the shape of the dose curve; as a rule, active = well fitted inhibition curve with a large enough effect; inconclusive = small, poorly fitted or top-dose-only effect; inactive = flat fitted curve, though single readings scatter.
Field 'call' accepts 1 (active), 0 (inactive)

Sample answers from the record:
compound	category
CC12C=C(C=Cc3ccc(Br)cc3)C(C)(C1)C(c1ccc(Br)cc1)CC2=O (stereo not given)	1
COC(=O)NCC=Cc1nc(CCCO)co1	0
COC(=O)C(C(C)=O)[C@@H](NC(=O)OC(C)(C)C)c1ccccc1 (stereo not given in full)	0
CCCCCCCc1cc2ccccc2c2c(C(=O)OC)cc(C(=O)OC)n12	0
CCOC(=O)N1C2=NC(C(=O)OC)=C(C(=O)OC)[C@@H]3Nc4ccccc4[C@]23C[C@H]1C(=O)OC	0

Inquiry: Please indicate how the test categorized C#CC1(O)C2C=C(OC)C(=O)C1C(c1ccccc1)C2C (stereo not given) .
Reply text: 0

Inquiry: Check the results log: what was the call for COCCN1C=C2C(=O)C(C)(OC(=O)C3CCCC3)C(=O)C=C2C=C1c1ccsc1 (stereo not given) ?
Reply text: 0

Inquiry: Please share the test call associated with `COc1cccc([C@H]2Oc3ccc(OC)cc3C(=NO[C@@H](C)c3cc(-c4c(C)cc(C)cc4C)no3)[C@H]2O)c1` .
Reply text: 0

Inquiry: Answer briefly: the call reported for `C[C@@H]1CC[C@H]2C(=O)NC[C@@H](O)CN2[C@@H]1c1ccc(Br)cc1` in this assay.
Reply text: 0

Inquiry: What did the test return for `CC(C)CON=C1C[C@@H](O)[C@@H](O)[C@@H]2[C@H]3C(=O)N(C[C@@H]4CCCO4)C(=O)[C@@H]3CC[C@H]12` ?
Reply text: 0

Inquiry: Which outcome did this test record for the compound `C#CCCCON=C1C[C@@H](O)[C@H](O)[C@H]2[C@@H]3C(=O)N(C4CCCCC4)C(=O)[C@@H]3CC[C@@H]12` ?
Reply text: 0
